system: KM12; assay: NCI tumour cell line growth inhibition, 48 h
Active and inactive are the calls of the source. Rule as the data show it: active = GI50 up to about 1.1 µM and inactive = higher.
Please reply with one of these outcomes: label 1 = active, label 0 = inactive

Reference set (8 entries):
What call does the record list for c1ccc(CSC2(SCc3ccccc3)CCCC2)cc1 ?
label 0

What call does the record list for COC1=CC(=O)c2c(cc(COP(N)(=O)N(CCCl)CCCl)n2C)C1=O (stereo not given) ?
label 0

What call does the record list for CC(=O)CC1(OC(=O)C2C(C=C(C)C)C2(C)C)C(=O)Nc2ccccc21 (stereo not given) ?
label 0

What call does the record list for O=C(N/N=C1/C(=O)N(c2ccc(Cl)cc2Cl)C(=O)C(=O)C1c1nc2ccccc2o1)c1ccccc1O (stereo not given) ?
label 0

What call does the record list for O=C(Nc1ccc(Cl)cc1)NS(=O)(=O)c1coc2ccccc2c1=O ?
label 0

What call does the record list for COc1cc2cc(C(=O)N3C[C@H](CCl)c4c3cc(O)c3ccccc43)[nH]c2c(OC)c1OC ?
label 1

What call does the record list for CC(=O)O[C@H]1C[C@H](O[C@H]2[C@@H](O)C[C@H](O[C@H]3[C@@H](O)C[C@H](O[C@H]4CC[C@@]5(C)[C@H](CC[C@@H]6[C@@H]5C[C@@H](O)[C@]5(C)[C@@H](C7=CC(=O)OC7)CC[C@]65O)C4)O[C@@H]3C)O[C@@H]2C)O[C@H](C)[C@H]1O[C@@H]1O[C@H](CO)[C@@H](O)[C@H](O)[C@H]1O [LANATOSIDE C] ?
label 1

What call does the record list for O=[N+]([O-])c1cccc(Nc2nc(Cl)nc(Cl)n2)c1 ?
label 0

---
What call does the record list for COc1ccc(C(Cc2cc(OC)c(OC)c(OC)c2)C(=O)O)cc1 (stereo not given) ?
label 0

What call does the record list for C=C[C@@H](C)[C@]1(C(=O)OC)CCCC12OCCO2 ?
label 0
